System: RPMI-8226 leukemia
Assay: NCI tumour cell line growth inhibition, 48 h
Form field: TGI (one value per entry).
ATTRIBUTE MEASURED: TGI

- MOLECULE: "N#CC(C#N)=Cc1c(-c2ccccc2)[nH]c2ccccc12"
  MEASURED RESULT: "4.62 µM"
- MOLECULE: "Cc1c(/C=N/NC(=S)Nc2cccc(Cl)c2)c(=O)n(-c2ccccc2)n1C"
  MEASURED RESULT: "> 100 µM"
- MOLECULE: "NCCC(=O)N[C@H](Cc1cc(O)c(O)c(SCC(NC(=O)CC[C@H](N)C(=O)O)C(=O)NCC(=O)O)c1)C(=O)O (stereo not given in full)"
  MEASURED RESULT: "> 50 µM"
- MOLECULE: "N#CCCN(CCC#N)C(=O)c1cccc(C(=O)N(CCC#N)CCC#N)c1"
  MEASURED RESULT: "> 85.1 µM"
- MOLECULE: "NC(=O)c1cc(-c2ccncc2)cc(-c2ccccc2)c1N"
  MEASURED RESULT: "> 25 µM"
- MOLECULE: "CC(C)(C)OC(=O)NC1CC=CCC1NC(=O)OC(C)(C)C (stereo not given)"
  MEASURED RESULT: "> 100 µM"
- MOLECULE: "CCOC(=O)[C@@H]1C[C@H]1c1ccc(O)c(O)c1"
  MEASURED RESULT: "> 100 µM"
- MOLECULE: "C[C@@H](C1CCC2C3C(=CC(=O)[C@@]21C)[C@H](C)[C@]1(CCC(=O)O1)C1OC31)[C@H]1C[C@]2(C)O[C@@](C)(O1)OC2(C)C (stereo not given in full)"
  MEASURED RESULT: "> 100 µM"
- MOLECULE: "Cc1cc(N2CCN(C)CC2)nc(NCc2cc(Nc3ccnc4cc(Cl)ccc34)ccc2F)n1"
  MEASURED RESULT: "5.48 µM"
- MOLECULE: "COc1ccc(C2=Nc3ccccc3SC(C)C2)cc1 (stereo not given)"
  MEASURED RESULT: "60.2 µM"
- MOLECULE: "CC1C2=C(CC(C)(C)CC2=O)NC2=C1C(=O)CC(C)(C)C2"
  MEASURED RESULT: "> 100 µM"
- MOLECULE: "Cc1cc2cccnc2c2ncccc12"
  MEASURED RESULT: "9.07 µM"
- MOLECULE: "Cc1ccc(C2CC(c3ccc([N+](=O)[O-])cc3)=Nc3ccccc3S2)cc1 (stereo not given)"
  MEASURED RESULT: "44.9 µM"
- MOLECULE: "CC(CN(C)C)C(=O)c1ccccc1C(=O)O (stereo not given)"
  MEASURED RESULT: "78 µM"
- MOLECULE: "Cc1cc(C)nc(NS(=O)(=O)c2ccc(NN=c3c4ccccc4n(C)c4ccccc34)cc2)n1"
  MEASURED RESULT: "> 100 µM"
- MOLECULE: "O=C(O)c1c[nH]c2c(=O)[nH]cnc12"
  MEASURED RESULT: "> 100 µM"
- MOLECULE: "C[n+]1noc(/N=N\\[O-])c1-c1cc(-c2c(/N=N\\[O-])on[n+]2C)cc(-c2c(/N=N/[O-])on[n+]2C)c1"
  MEASURED RESULT: "> 100 µM"
- MOLECULE: "Oc1c(C(Nc2cccc3ccccc23)c2ccccc2)ccc2cccnc12 (stereo not given)"
  MEASURED RESULT: "> 100 µM"
- MOLECULE: "CCC[C@H](O)[C@@H](CNc1cc(NC(C)=O)nc(NC(C)=O)n1)N(Cc1ccccc1)Cc1ccccc1"
  MEASURED RESULT: "> 100 µM"
- MOLECULE: "CC(=O)Nc1ccc(-c2c3nc(c(-c4cc5ccccc5[n+](C)c4)c4ccc([nH]4)c(-c4ccc(NC(C)=O)cc4)c4nc(c(-c5cc6ccccc6[n+](C)c5)c5ccc2[nH]5)C=C4)C=C3)cc1"
  MEASURED RESULT: "> 50 µM"
- MOLECULE: "Cn1cc(C2=C(c3c4n(c5ccccc35)CCCC4)C(=O)NC2=O)c2ccccc21"
  MEASURED RESULT: "> 25 µM"
- MOLECULE: "COC(=O)/C=C/c1cnc2c(c1)oc(=O)n2CCc1ccccn1"
  MEASURED RESULT: "> 100 µM"
- MOLECULE: "C=CCC1C(=O)C(C(=O)OC)N2CCc3c([nH]c4ccccc34)C12 (stereo not given)"
  MEASURED RESULT: "> 100 µM"
- MOLECULE: "CC1=NN(c2nc(N)nc(/C(C#N)=C/c3ccc([N+](=O)[O-])o3)n2)C(C)(C)C1"
  MEASURED RESULT: "> 22.8 µM"
- MOLECULE: "CCOc1cc(-c2nc3ccccn3c2/N=C/c2cc([N+](=O)[O-])cc([N+](=O)[O-])c2O)ccc1O"
  MEASURED RESULT: "> 100 µM"
- MOLECULE: "Cc1oc2nc[nH]c(=O)c2c1C(=O)/C=C/c1ccc(Cl)cc1"
  MEASURED RESULT: "5.16 µM"
- MOLECULE: "C[C@@]12c3c4ccc(C=O)c3Oc3ccc(C=O)c(c31)Oc1c(C=O)ccc(c12)O4"
  MEASURED RESULT: "> 100 µM"
- MOLECULE: "COc1cc(/C=N/Nc2ncnc3c2cnn3C(C)C)ccc1O"
  MEASURED RESULT: "> 17.8 µM"
- MOLECULE: "CC1(C)OCC2(CO1)CSCCCSCC1(COC(C)(C)OC1)CSCCCSC2"
  MEASURED RESULT: "> 100 µM"
- MOLECULE: "O=C(COc1ccc(/C=C2\\Oc3ccccc3C2=O)cc1)Nc1nccs1"
  MEASURED RESULT: "> 100 µM"
- MOLECULE: "CC(=O)NC1=C(C)C(=O)c2c(nc3n2CCC3OC(=O)c2ccccc2)C1=N (stereo not given)"
  MEASURED RESULT: "4.34 µM"
- MOLECULE: "Oc1[nH]c2ccccc2c1N=NC(=S)N1CCCCC1"
  MEASURED RESULT: "2.43 µM"
- MOLECULE: "CCC(CC)C(=O)OC[n+]1ccc(-c2c(COC(=O)NC(C)C)c(COC(=O)NC(C)C)c3n2CCC3)cc1"
  MEASURED RESULT: "> 100 µM"
- MOLECULE: "Cc1csc(/C=N/NC(=O)c2nnn(-c3ccnc4c(C(F)(F)F)cccc34)c2C)c1"
  MEASURED RESULT: "> 100 µM"
- MOLECULE: "COc1ccc(/C(CCl)=C(\\Nc2ccccc2)c2ccc(OC)c(OC)c2)cc1OC"
  MEASURED RESULT: "> 100 µM"
- MOLECULE: "Cc1ccc(N/C(Sc2ccccc2)=C(/C(Cl)=C(Cl)Cl)[N+](=O)[O-])c(C)c1"
  MEASURED RESULT: "64.8 µM"
- MOLECULE: "CN(C)c1ccc(-c2ccc(-c3ccc(C(=N)N)c(F)c3)s2)cc1"
  MEASURED RESULT: "4.48 µM"
- MOLECULE: "O=c1[nH][nH]c(=O)[nH]1"
  MEASURED RESULT: "> 100 µM"
- MOLECULE: "CCCCC1Cc2ccccc2-c2n1c1ccccc1[n+]2C (stereo not given)"
  MEASURED RESULT: "14 µM"
- MOLECULE: "O=C(c1ccccc1)C(c1ccccc1)C1(O)C(=O)Nc2ccccc21 (stereo not given)"
  MEASURED RESULT: "> 100 µM"

// provenance: PubChem BioAssay (NCI)
